- system_under_test: anti-A027 antibody (IL-1beta PET)
- test: peptide competition assay in 6% BSA
pIC50: −log10 of the molar value. Where no end group is shown, it is not given here.

binder: CLEFESAQFPNWY-NH2 [A027 peptide (IL-1beta), …-NH2]
pIC50: 8.30

Recorded values, source patent US20060014212A1.
